Test: HILIC, Waters ACQUITY UPLC BEH Amide, 100 × 2.1 mm, 1.7 µm; A: water + 0.125% formic acid + 10 mM ammonium formate; B: 5% water + 95% acetonitrile + 0.125% formic acid + 10 mM ammonium formate; gradient (min/%B) 0/100 2/100 7.7/70 9.5/40 10.25/30 12.75/100 17/100
Conditions: stereoisomer not certain
OUTCOME MEASURE: LC retention time
Hey, just the number and the unit after it is fine.

Example compounds with recorded LC retention time:
>  <COMPOUND>
NC(N)=NCCCC(N)C(=O)NC(CO)C(=O)O (centres undefined)

>  <LC retention time>
9.9 min

$$$$
>  <COMPOUND>
O=C(O)C1NCCC1O (centres undefined) [3-Hydroxyproline]

>  <LC retention time>
8.17 min

$$$$
>  <COMPOUND>
NCC(=O)NC(Cc1ccc(O)cc1)C(=O)O (centres undefined)

>  <LC retention time>
8.07 min

$$$$

Next, consider the following compound.
Given the entry CS(=O)CCCCN=C=S (centres undefined) , report its measured LC retention time. 1.14 min

Reference source: the RepoRT retention time repository
